- assay-protocol: NCI Yeast Anticancer Drug Screen. Data for the rad50EPP+ strain (AID 151);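 also: 0% = growth of vehicle-treated control cultures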
- stated-conditions: S. cerevisiae rad50 mutant strain, at 33.0 µM, stronger effect = higher value
About 79,000 compounds went through this panel and 15% of them were active in at least one assay; those are over-represented in the sample as a whole.
assay-endpoint: growth inhibition (%)
Give your result in % as a bare value.

Solved entries:
{"columns": ["molecule", "assay-endpoint", "unit-info", "experimental-result"],
 "data": [
  ["C(=Nc1ccc(-c2cc(-c3ccccc3)nc3ccc4ccccc4c23)cc1)c1ccccc1", "growth inhibition", "%", 10],
  ["CCCC(O)C1CC(C(C)C)CCC1C (stereo unspecified)", "growth inhibition", "%", 47],
  ["O=C(COC(=O)c1ccccc1)c1ccc(Br)cc1", "growth inhibition", "%", 99],
  ["C[C@@](O)(/C=C/[C@H]1CC=CC(=O)O1)[C@@H](C[C@@H](O)\\C=C/C=C\\C=C\\CO)OP(=O)(O)O", "growth inhibition", "%", 25],
  ["O=C(O)c1cc2ccccc2c2c1C(=O)c1ccccc1-2", "growth inhibition", "%", 47],
  ["CCOC(=O)c1cc([N+](=O)[O-])c(Sc2ncnc3nc[nH]c23)c([N+](=O)[O-])c1", "growth inhibition", "%", 6],
  ["O=C1/C(=C/c2ccccc2)CCCC1CN1CCCCC1 (stereo unspecified)", "growth inhibition", "%", 46],
  ["O=c1[nH]c2ccc(Cl)cc2o1", "growth inhibition", "%", -52],
  ["COC(=O)Oc1cc(Cl)c(Cl)cc1Cl", "growth inhibition", "%", 2],
  ["O=C1OC(OC/C(Br)=C(\\Br)COC2OC(=O)C(Cl)=C2Cl)C(Cl)=C1Cl (stereo unspecified)", "growth inhibition", "%", 6]
]}

Attention now turns to another entry.
For record O=C1C=C(N2CCN(c3ccccn3)CC2)C(=O)c2c(O)ccc(O)c21 the listed growth inhibition is 17
